- target under test: T1, murine IL-21R extracellular domain His-Flag fusion protein (murine, UniProt Q9JHX3 20-237)
- T1 construct: Biotinylated in the ELISAs; also called mIL-21R-H/F; murine IL-21R-H/F
- assay overview: competition ELISA; competitor plate-bound 18A5 IgG
Reported pIC50 by item:
Scale: negative log10 of molar concentration, which is what pIC50 denotes.

stdin: Indicate its recorded pIC50; the binder in question is scFv L24 (scFv) scFv: QVQLQESGPGLVKTSETLSLTCAVSGYSISSGYYWGWIRQPPGKGLEWIGSISHTGNTYYNPPLKSRVTISVDTSKNQFSLKLSSVTAADTAVYYCARGGGISRPEYWGKGTLVTVSSGGGGSGGGGSGGGGSALSSELTQDPPVSVALGQTVTLTCQGDSLRTYYASWYQQKSGQAPILLLYGKHKRPSGIPDRFSGSTSGDTASLTITGAQAEDEADYYCIARSNKGNPHVLFGGGTQLTVL
stdout: 8.22

stdin: Indicate its recorded pIC50; the binder in question is scFv L9 (scFv) scFv: QVQLQESGPGLVKTSETLSLTCAVSGYSISSGYYWGWIRQPPGKGLEWIGSISHTGNTYYNPPLKSRVTISVDTSKNQFSLKLSSVTAADTAVYYCARGGGISRPEYWGKGTLVTVSSGGGGSGGGGSGGGGSALSSELTQDPPVSVALGQTVTLTCQGDSLRTYYASWYQQKSGQAPILLLYGKHKRPSGIPDRFSGSTSGDTASLTITGAQAEDEADYYCVARSNKGNPHVLFGGGTQLTVL
stdout: 8.15

stdin: Indicate its recorded pIC50; the binder in question is scFv L15 (scFv) scFv: QVQLQESGPGLVKTSETLSLTCAVSGYSISSGYYWGWIRQPPGKGLEWIGSISHTGNTYYNPPLKSRVTISVDTSKNQFSLKLSSVTAADTAVYYCARGGGISRPEYWGKGTLVTVSSGGGGSGGGGSGGGGSALSSELTQDPPVSVALGQTVTLTCQGDSLRTYYASWYQQKSGQAPILLLYGKHKRPSGIPDRFSGSTSGDTASLTITGAQAEDEADYYCSTRAIHGNPHVLFGGGTQLTVL
stdout: 7.85
